Below, each entry is listed with its recorded inhibition at 1 µM.
- Tested on: PDE4B (Homo sapiens)
- Assay text: Scintillation Proximity Assay (SPA) of PDE4B enzyme activity ([H3]-cAMP cleavage)
- Format: biochemical
- Cond: test substance 1 μM; one-hour incubation with [H3]-cAMP at 30° C.
Answer format: numeric, % implied, no suffix.

Take a look at these entries with their results.
> print(dat)
                                   compound  endpoint.value
1  O=C(c1ccc(F)cc1)C1(c2ccc(F)cc2)CCN(c2nc3c(c(NC4CCOCC4)n2)[S+]([O-])CC3)CC1 (stereo not shown) [Example 297]              73
2  CN1C[C@@H](Nc2nc(N3CCC(c4nc(-c5ccccc5)c(-c5ccccc5)o4)CC3)nc3c2[S+]([O-])CC3)CCC1=O (stereo partly shown) [Example 278]              95
3  [O-][S+]1CCc2nc(N3CCC(c4nc5ncncc5[nH]4)CC3)nc(NC3CCOCC3)c21 (stereo not shown) [Example 208]              82

# ---- query compound ----
Sample CN1C[C@@H](Nc2nc(N3CCC(O)(c4ccc(Cl)cc4)CC3)nc3c2[S+]([O-])CC3)CCC1=O (stereo partly shown) [Example 254] ; inhibition at 1 µM observed: 92

---

- Tested on: PDE4B (Homo sapiens)
- Assay text: Scintillation Proximity Assay (SPA) of PDE4B enzyme activity ([H3]-cAMP cleavage)
- Type: biochemical
- Cond: test substance 1 μM; one-hour incubation with [H3]-cAMP at 30° C.
Below: a set of entries, each annotated with reported inhibition at 1 µM.
Give just the numeric value; % need not be written.

Short answer for [O-][S+]1CCc2nc(N3CCC(COCc4ccccc4)(c4ccc(Cl)cc4)CC3)nc(NC3(CO)CC3)c21 (stereo not drawn) [Example 309] : inhibition at 1 µM was 92

The recorded inhibition at 1 µM for [O-][S+]1CCc2nc(N3CCC(c4nc(-c5ccccc5)c(-c5ccccc5)o4)CC3)nc(NC3CCOCC3)c21 (stereo not drawn) [Example 279] is 95

Entry under test: [O-][S+]1CCc2nc(N3CCC(Oc4ccc(F)c(F)c4)CC3)nc(NC3CCOCC3)c21 (stereo not drawn) [Example 175] . Its inhibition at 1 µM was 89

Entry CN1C[C@@H](Nc2nc(N3CCC(c4nc5cc(F)ccc5o4)CC3)nc3c2[S+]([O-])CC3)CCC1=O (stereo partly drawn) [Example 195] ; inhibition at 1 µM = 96

So for N[C@@H]1CC1Nc1nc(N2CCC(c3ccc(Cl)cc3)CC2)nc2c1[S+]([O-])CC2 (stereo partly drawn) [Example 245] , the logged inhibition at 1 µM turned out to be 68

Entry O=C(c1ccc(F)cc1)C1(c2ccc(F)cc2)CCN(c2nc3c(c(Nc4cccc(F)c4)n2)[S+]([O-])CC3)CC1 (stereo not drawn) [Example 299] — recorded inhibition at 1 µM = 90

Record Cc1nn(C)c(C)c1CNC(=O)c1ccc(OC2CCN(c3nc4c(c(NC5CCOCC5)n3)[S+]([O-])CC4)CC2)cc1 (stereo not drawn) [Example 243] , field inhibition at 1 µM: 94

---

In this section we review reported inhibition at 1 µM values for a set of compounds.
- Tested on: PDE4B (Homo sapiens)
- Assay text: Scintillation Proximity Assay (SPA) of PDE4B enzyme activity ([H3]-cAMP cleavage)
- Format: biochemical
- Cond: test substance 1 μM; one-hour incubation with [H3]-cAMP at 30° C.
Provide the reading as a plain figure in %.

Check out these entries, answers already filled in.
> print(dat)
                                   compound             tested.on  unit.info  endpoint.value
1  Cc1nn(C)cc1C(C)NC(=O)c1ccc(OC2CCN(c3nc4c(c(NC5CCOCC5)n3)[S+]([O-])CC4)CC2)cc1 (stereo not shown) [Example 244]  PDE4B (Homo sapiens)          %              95
2  [O-][S+]1CCc2nc(N3CCC(c4cc(-c5cccs5)[nH]n4)CC3)nc(Nc3cccc(F)c3)c21 (stereo not shown) [Example 287]  PDE4B (Homo sapiens)          %              89
3  COCC1(c2ccc(Cl)cc2)CCN(c2nc3c(c(Nc4cccc(F)c4)n2)[S+]([O-])CC3)CC1 (stereo not shown) [Example 305]  PDE4B (Homo sapiens)          %              91
4  CN(C)CC(=O)NCC1(c2ccccc2)CCN(c2nc3c(c(N[C@H]4CCC(=O)N(C)C4)n2)[S+]([O-])CC3)CC1 (stereo partly shown) [Example 206]  PDE4B (Homo sapiens)          %              95
5  Cn1nc(C2CCN(c3nc4c(c(NC5CCOCC5)n3)[S+]([O-])CC4)CC2)cc1-c1ccco1 (stereo not shown) [Example 198]  PDE4B (Homo sapiens)          %              94
6  [O-][S+]1CCc2nc(N3CCC(c4cc(-c5cccs5)[nH]n4)CC3)nc(NC3CCOCC3)c21 (stereo not shown) [Example 284]  PDE4B (Homo sapiens)          %              83
7  COC1(c2ccc(Cl)cc2)CCN(c2nc3c(c(NC4(CO)CC4)n2)[S+]([O-])CC3)CC1 (stereo not shown) [Example 314]  PDE4B (Homo sapiens)          %              88
8  CN1C[C@@H](Nc2nc(N3CCC(c4cc(-c5ccco5)n[nH]4)CC3)nc3c2[S+]([O-])CC3)CCC1=O (stereo partly shown) [Example 190]  PDE4B (Homo sapiens)          %              97

Observed inhibition at 1 µM, PDE4B (Homo sapiens), CN1C[C@@H](Nc2nc(N3CCC(c4cc5ccccc5o4)CC3)nc3c2[S+]([O-])CC3)CCC1=O (stereo partly shown) [Example 187] : 98

---

Catalogue of compounds with associated inhibition at 1 µM
- Tested on: PDE4B (Homo sapiens)
- Assay text: Scintillation Proximity Assay (SPA) of PDE4B enzyme activity ([H3]-cAMP cleavage)
- Assay type: biochemical
- Cond: test substance 1 μM; one-hour incubation with [H3]-cAMP at 30° C.
# include the unit after the value

# annotated cases, reported inhibition at 1 µM shown
> print(dat)
                                   compound  endpoint.value
1  COC1CCN(c2nc3c(c(NC4CCOCC4)n2)[S+]([O-])CC3)CC1 (stereo not shown)             77%
2  COC(=O)C1(c2ccccc2)CCN(c2nc3c(c(N[C@H]4CCC(=O)N(C)C4)n2)[S+]([O-])CC3)CC1 (stereo partly shown)             96%
3  CN1C[C@@H](Nc2nc(N3CCC(c4n[nH]c5ccccc45)CC3)nc3c2[S+]([O-])CC3)CCC1=O (stereo partly shown)             82%

Record CCN1CCc2ccc(OC3CCN(c4nc5c(c(NC6CCOCC6)n4)[S+]([O-])CC5)CC3)cc2CC1 (stereo not shown) / PDE4B (Homo sapiens), inhibition at 1 µM recorded as 95%

---

- Tested on: PDE4B (Homo sapiens, UniProt Q07343)
- Sequence (Q07343 whole entry, species assumed): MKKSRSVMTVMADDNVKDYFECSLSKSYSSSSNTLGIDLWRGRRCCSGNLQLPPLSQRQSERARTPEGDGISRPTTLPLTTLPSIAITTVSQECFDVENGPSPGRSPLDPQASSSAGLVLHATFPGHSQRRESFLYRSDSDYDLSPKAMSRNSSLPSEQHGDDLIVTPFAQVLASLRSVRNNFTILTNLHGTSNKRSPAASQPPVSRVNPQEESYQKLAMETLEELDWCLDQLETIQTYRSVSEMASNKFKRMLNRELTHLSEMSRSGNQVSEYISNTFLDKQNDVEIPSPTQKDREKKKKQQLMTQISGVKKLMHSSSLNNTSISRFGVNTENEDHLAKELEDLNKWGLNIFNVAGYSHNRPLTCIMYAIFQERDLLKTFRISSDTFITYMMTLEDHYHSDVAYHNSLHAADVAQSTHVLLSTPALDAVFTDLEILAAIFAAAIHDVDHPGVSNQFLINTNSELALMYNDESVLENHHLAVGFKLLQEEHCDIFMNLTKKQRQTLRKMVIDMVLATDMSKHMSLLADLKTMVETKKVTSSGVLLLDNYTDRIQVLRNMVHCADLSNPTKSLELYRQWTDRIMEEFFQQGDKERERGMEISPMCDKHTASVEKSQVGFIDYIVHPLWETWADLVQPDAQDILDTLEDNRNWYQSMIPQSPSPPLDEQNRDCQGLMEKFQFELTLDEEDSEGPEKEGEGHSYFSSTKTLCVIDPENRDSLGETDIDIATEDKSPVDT
- Assay text: Scintillation Proximity Assay (SPA) of PDE4B enzyme activity ([H3]-cAMP cleavage)
- Type: biochemical
- Cond: test substance 1 μM; one-hour incubation of [H3]-cAMP with PDE4B enzyme at 30° C.
Reported property: inhibition at 1 µM (%)
// return numeric value only (unit: %, not printed)

Form: compound = COc1ccc(C2CCN(c3nc4c(c(N[C@@H](CO)C(C)C)n3)[S+]([O-])CC4)CC2)cc1 (some centres unmarked) ; inhibition at 1 µM = 93

The recorded inhibition at 1 µM for entry [O-][S+]1CCc2nc(N3CCC(c4ccc(F)cc4F)CC3)nc(NC3(CO)CC3)c21 (centres unmarked) equals 93

// inhibition at 1 µM lookup, compound = CC(C)[C@H](CO)Nc1nc(N2CCC(c3cccc(Cl)c3)CC2)nc2c1[S+]([O-])CC2 (some centres unmarked) , result: 94

---

- Tested on: PDE4B (Homo sapiens, UniProt Q07343)
- Assay text: Scintillation Proximity Assay (SPA) of PDE4B enzyme activity ([H3]-cAMP cleavage)
- Type: biochemical
- Cond: test substance 1 μM; one-hour incubation with [H3]-cAMP at 30° C.
Reported property: inhibition at 1 µM (%)
Answer format: numeric, % implied, no suffix.

get_value(item= [O-][S+]1CCc2nc(N3CCC(c4nc(-c5ccccc5)no4)CC3)nc(NC3(CO)CC3)c21 (stereo not drawn) , readout=inhibition at 1 µM) returns 91

Field inhibition at 1 µM (entry O=C(O)c1ccc(OC2CCN(c3nc4c(c(NC5CCOCC5)n3)[S+]([O-])CC4)CC2)cc1 (stereo not drawn) ) reads 92

Record summary for COCC1(c2ccc(Cl)cc2)CCN(c2nc3c(c(NC4(CO)CC4)n2)[S+]([O-])CC3)CC1 (stereo not drawn) : reported inhibition at 1 µM = 89

Please fill in: inhibition at 1 µM reported for CC(C)[C@H](CO)Nc1nc(N2CCC(C(=O)c3ccc(F)cc3)(c3ccc(F)cc3)CC2)nc2c1[S+]([O-])CC2 (stereo partly drawn) = 91

Notebook: COCC1(c2ccc(Cl)cc2)CCN(c2nc3c(c(NC4CCOCC4)n2)[S+]([O-])CC3)CC1 (stereo not drawn) , inhibition at 1 µM read as 91

// [O-][S+]1CCc2nc(N3CCC(CO)(c4ccc(Cl)cc4)CC3)nc(Nc3cccc(F)c3)c21 (stereo not drawn) : inhibition at 1 µM value = 89
